- tested.target: purified F1 and membrane bound F1Fo E. coli ATP synthase (Escherichia coli)
- Sequence (P0ABB4 whole entry, looked up): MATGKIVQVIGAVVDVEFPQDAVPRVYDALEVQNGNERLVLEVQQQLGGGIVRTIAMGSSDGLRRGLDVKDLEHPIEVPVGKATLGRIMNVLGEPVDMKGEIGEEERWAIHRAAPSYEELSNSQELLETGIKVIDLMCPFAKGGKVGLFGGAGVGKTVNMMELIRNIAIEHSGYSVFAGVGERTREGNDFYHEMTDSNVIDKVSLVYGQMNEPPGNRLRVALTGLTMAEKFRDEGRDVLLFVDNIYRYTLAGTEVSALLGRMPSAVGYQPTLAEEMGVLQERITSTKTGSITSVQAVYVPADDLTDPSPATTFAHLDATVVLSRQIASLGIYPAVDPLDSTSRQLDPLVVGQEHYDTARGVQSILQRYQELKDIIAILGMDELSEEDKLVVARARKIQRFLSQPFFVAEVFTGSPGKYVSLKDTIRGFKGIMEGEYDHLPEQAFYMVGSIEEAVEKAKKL
- experimental.details: biochemical
pIC50: −log10 of the molar value. Where no end group is shown, it is not given here.
metric: pIC50

Entry AIGSILGALAKGLPTLISWIKNR [MRP] — recorded pIC50 = ~5.32
